Tested on: velvetleaf
protocolSummary: Test B pre/postemergence velvetleaf
Assay type: in vivo, Abutilon theophrasti
measurementSetup: Postemergence, Rate 125 g/ha; scale of 0 to 10 where 0 is no effect and 10 is complete control
Method: […] At the same time, these crop and weed species were also treated with postemergence applications of test chemicals formulated in the same manner. […] Treated plants and controls were maintained in a greenhouse for twelve to sixteen days, after which all species were compared to controls and visually evaluated. […]
observedProperty: Velvetleaf plant response rating
// return a plain number; no unit text

Identify measured Velvetleaf plant response rating corresponding to C#CCCn1c(=O)on(C(=O)N(c2ccc(F)cc2F)C(C)C)c1=O [Compound 744]
0
